Conditions: 333.15 K; 101.33 kPa; Liquid; Concentric cylinders viscometry
Endpoint: viscosity (mPa·s)

These recorded examples may help you get a feel for the data.
CCCCn1cc[n+](C)c1.O=P([O-])(O)O [1-butyl-3-methylimidazolium dihydrogen phosphate] | 29.77
CCCCC[n+]1ccn(C)c1.O=P([O-])(O)O [1-methyl-3-pentylimidazolium dihydrogen phosphate] | 46.91
CCC[n+]1ccn(C)c1.O=P([O-])(O)O [1-methyl-3-propylimidazolium dihydrogen phosphate] | 13.85

I. CCCCCn1cc[n+](C)c1C.O=S(=O)([O-])O [2,3-dimethyl-1-pentylimidazolium hydrogen sulfate]
II. CCCCCn1cc[n+](C)c1.O=C([O-])O [3-methyl-1-pentylimidazolium hydrogen carbonate]
Which shows the larger viscosity value: I or II ? Pick one; state its label.
I
